Values compiled from patent US9238631B2.

Exercise: for every item that follows, state its recorded Liver (% ID/g at 1 h p.i.).
System: NCI-H460 tumor
Procedure text: PET imaging in NCI-H460 tumor bearing nude-rats
Assay type: in vivo
Stated conditions: PET ROI analysis, 1 h p.i.
Experimental: c) Beside PET-imaging studies in mice, also the imaging properties of [^18F]-12 in rats were examined. NCI-H460 tumor cells were inoculated into the right flank of nude-rats (RH-Foxn1 nu/nu) 8 to 10 days before the PET study. […] The H460 tumor was nicely visible (0.9% ID/g as determined by ROI analysis). […] To test the imaging properties, compounds from the present invention were evaluated in PET imaging studies using tumor bearing rats. […]
Give bare numbers, in % ID/g.

Given N[C@@H](CCC(Cc1ccc(OC[18F])cc1)C(=O)O)C(=O)O (single isomer, unassigned) [[^18F]-41 C5-2] , state its recorded Liver (% ID/g at 1 h p.i.). 0.2

Using the record for N[C@@H](CC(Cc1ccc(OCC[18F])c[n+]1[O-])C(=O)O)C(=O)O (stereo partly shown) [[^18F]-35] , report its Liver (% ID/g at 1 h p.i.). 0.2

What does the data say about its Liver (% ID/g at 1 h p.i.)? Entry: N[C@@H](CC(Cc1ccc(C[18F])cc1)C(=O)O)C(=O)O (stereo partly shown) [[^18F]-66] 1.7

// returns reported Liver (% ID/g at 1 h p.i.) for input N[C@@H](CC(Cc1ccc(OCCC[18F])cc1)C(=O)O)C(=O)O (stereo partly shown) [[^18F]-4] 1.1

Could you share which Liver (% ID/g at 1 h p.i.) value was measured for N[C@@H](CCC(Cc1ccc(OCC[18F])cc1)C(=O)O)C(=O)O (stereo partly shown) [[^18F]-12] ? 0.8

Consider the compound shown here: N[C@@H](C[C@@H](Cc1ccc(OC[18F])cc1)C(=O)O)C(=O)O [[^18F]-50] What is its recorded Liver (% ID/g at 1 h p.i.)? 0.2

Working through the 3 compounds below one at a time, give Liver (% ID/g at 1 h p.i.) for each.
1. N[C@@H](C[C@H](Cc1ccc(OC[18F])cc1)C(=O)O)C(=O)O [[^18F]-48]
2. N[C@@H](CCC(Cc1ccc(OC[18F])cc1)C(=O)O)C(=O)O (stereo partly shown) [[^18F]-41]
3. N[C@@H](CC(Cc1ccc(OC(CO)C[18F])cc1)C(=O)O)C(=O)O (stereo partly shown) [[^18F]-60]

1: 0.2; 2: 0.4; 3: 0.9

For each entry beneath this line, provide reported Liver (% ID/g at 1 h p.i.).
1. N[C@@H](CC(Cc1ccc(OC[C@H](O)[C@@H](O)C[18F])cc1)C(=O)O)C(=O)O (stereo partly shown) [[^18F]-58]
2. N[C@@H](CC(Cc1ccc(O[C@H]2C[C@@H]([18F])C2)cc1)C(=O)O)C(=O)O (stereo partly shown) [[^18F]-22]
3. N[C@@H](CC(Cc1ccc(OCC[18F])cn1)C(=O)O)C(=O)O (stereo partly shown) [[^18F]-17]
4. N[C@H](CCC(Cc1ccc(OCC[18F])cc1)C(=O)O)C(=O)O (stereo partly shown) [[^18F]-16]

1. 1.7
2. 0.6
3. 0.9
4. 2.3

###

System: NCI-H460 tumor
Procedure text: In vivo biodistribution in NCI-H460 tumor bearing mice
Stated conditions: 1 h post injection
Endpoint: T/Muscle

Consider the reported T/Muscle for these compounds:
Requested read-out: T/Muscle. Entry: N[C@@H](CCC(Cc1ccc(OCC[18F])cc1)C(=O)O)C(=O)O (stereo partly drawn) [[^18F]-12] 103.4

What value of T/Muscle has been recorded for this entry: N[C@@H](CCC(Cc1ccc(OC[18F])cc1)C(=O)O)C(=O)O (stereo partly drawn) [[^18F]-41] 90.6

Dear colleague, I am looking for the recorded T/Muscle of the following compound: N[C@@H](CC(Cc1ccc(OCC[18F])c(O)c1)C(=O)O)C(=O)O (stereo partly drawn) [[^18F]-44] 71.1

Record request: T/Muscle value, item N[C@@H](CCC(Cc1ccc(OCC[18F])cn1)C(=O)O)C(=O)O (stereo partly drawn) [[^18F]-32] 23.5

// returns reported T/Muscle for input N[C@@H](CCC(Cc1ccc(OC[18F])cc1)C(=O)O)C(=O)O (single isomer, unassigned) [[^18F]-41 C5-1] 94.2

Read the next record carefully.
Tell me the measured T/Muscle of N[C@@H](CC(Cc1ccc(OCC[18F])nc1)C(=O)O)C(=O)O (stereo partly drawn) [[^18F]-56] , please. 25

###

System: NCI-H460 tumor
Procedure text: In vivo biodistribution in NCI-H460 tumor bearing mice
Stated conditions: 1 h post injection
Friendly reminder: T/Blood below 30 is T, at or above is F.

Below, 5 compounds whose answers are already recorded.
Lab note: T/Blood threshold 30. Does this compound come in strictly under it? N[C@@H](CC(Cc1ccc(OCC[18F])nc1)C(=O)O)C(=O)O (stereo partly drawn) [[^18F]-56] T

Below 30 on T/Blood? Entry N[C@@H](CC(Cc1ccc(NCCC[18F])cc1)C(=O)O)C(=O)O (stereo partly drawn) [[^18F]-8] T

Item N[C@@H](CCC(Cc1ccc(OC[18F])cc1)C(=O)O)C(=O)O (single isomer, unassigned) [[^18F]-41 C5-2] : T/Blood beneath 30, strictly? F

Decide: T/Blood of N[C@H](CCC(Cc1ccc(OCC[18F])cc1)C(=O)O)C(=O)O (stereo partly drawn) [[^18F]-16] strictly below 30? T

T/Blood under 30? Item: N[C@@H](CCC(Cc1ccc(OC[18F])cc1)C(=O)O)C(=O)O (stereo partly drawn) [[^18F]-41] T

Further cases:
Bench note: check whether N[C@@H](CC(Cc1ccc(OCCC[18F])cc1)C(=O)O)C(=O)O (stereo partly drawn) [[^18F]-4] shows T/Blood below 30 T

###

Test system: NCI-H460 tumor
Procedure text: PET imaging in NCI-H460 tumor bearing nude-rats
Assay type: in vivo
Stated conditions: PET ROI analysis, 1 h p.i.
Please enter YES where Tumor (Mean % ID/g at 1 h p.i.) is greater than or equal to 0.9 % ID/g, and NO where it is lower.

Consider the following illustrative entries.
Assess whether reported Tumor (Mean % ID/g at 1 h p.i.) for N[C@@H](CC(Cc1ccc(OC[C@H](O)[C@@H](O)C[18F])cc1)C(=O)O)C(=O)O (some centres unmarked) [[^18F]-58] sits at 0.9 % ID/g or higher. NO

Quick check, Tumor (Mean % ID/g at 1 h p.i.) >= 0.9 % ID/g? N[C@H](CCC(Cc1ccc(OCC[18F])cc1)C(=O)O)C(=O)O (some centres unmarked) [[^18F]-16] NO

Say whether N[C@@H](CCC(Cc1ccc(OC[18F])cc1)C(=O)O)C(=O)O (single isomer, unassigned) [[^18F]-41 C5-2] shows Tumor (Mean % ID/g at 1 h p.i.) of 0.9 % ID/g or more. YES

Tumor (Mean % ID/g at 1 h p.i.) >= 0.9 % ID/g for N[C@@H](CC(Cc1ccc(OCC[18F])cn1)C(=O)O)C(=O)O (some centres unmarked) [[^18F]-17] ? YES

Determine whether this compound has Tumor (Mean % ID/g at 1 h p.i.) no lower than 0.9 % ID/g: N[C@@H](C[C@@H](Cc1ccc(OC[18F])cc1)C(=O)O)C(=O)O [[^18F]-50] YES

Further cases:
Say whether N[C@@H](C[C@H](Cc1ccc(OC[18F])cc1)C(=O)O)C(=O)O [[^18F]-48] shows Tumor (Mean % ID/g at 1 h p.i.) of 0.9 % ID/g or more. NO

Is Tumor (Mean % ID/g at 1 h p.i.) for N[C@@H](CC(Cc1ccc(C[18F])cc1)C(=O)O)C(=O)O (some centres unmarked) [[^18F]-66] at or above 0.9 % ID/g? NO

###

Test system: NCI-H460 tumor
Procedure text: In vivo biodistribution in NCI-H460 tumor bearing mice
Stated conditions: 1 h p.i.
Task for the reader: assign each of the following compounds its reported Pancreas (% ID/g at 1 h p.i.).
# answer = value followed by unit

Guide cases for Pancreas (% ID/g at 1 h p.i.), answers given:
# Pancreas (% ID/g at 1 h p.i.) lookup, item N[C@H](CCC(Cc1ccc(OCC[18F])cc1)C(=O)O)C(=O)O (stereo partly shown) [[^18F]-16] 1.4 ± 0.1 % ID/g

Record request: Pancreas (% ID/g at 1 h p.i.) value, item N[C@@H](CCC(Cc1ccc(OC[18F])cc1)C(=O)O)C(=O)O (stereo partly shown) [[^18F]-41] 1.0 ± 0.5 % ID/g

GET /values?readout=Pancreas (% ID/g at 1 h p.i.)&item= N[C@@H](CCC(Cc1ccc(OC[18F])cc1)C(=O)O)C(=O)O (single isomer, unassigned) [[^18F]-41 C5-2] 1.1 ± 0.2 % ID/g

Which Pancreas (% ID/g at 1 h p.i.) reading was recorded for the compound N[C@@H](CC(Cc1ccc(OCC[18F])c(O)c1)C(=O)O)C(=O)O (stereo partly shown) [[^18F]-44] ? 1.2 ± 0.1 % ID/g

Look up Pancreas (% ID/g at 1 h p.i.): N[C@@H](CCC(Cc1ccc(NCC[18F])cc1)C(=O)O)C(=O)O (stereo partly shown) [[^18F]-52] 7.5 ± 1.1 % ID/g

For each listed entry, give its Pancreas (% ID/g at 1 h p.i.).
1. N[C@@H](CC(Cc1ccc(NCCC[18F])cc1)C(=O)O)C(=O)O (stereo partly shown) [[^18F]-8]
2. N[C@@H](CC(Cc1ccc(OCCC[18F])cc1)C(=O)O)C(=O)O (stereo partly shown) [[^18F]-4]

2.2 ± 0.4 % ID/g
0.8 ± 0.1 % ID/g
